Test system: SK-OV-3 ovarian
TEST_DESCRIPTION: NCI tumour cell line growth inhibition, 48 h
OBSERVED_PROPERTY: TGI

• CC(C)CC(NC(=O)C(CI)Cc1ccccc1)C(=O)Nc1ccccc1 (stereo not drawn) = > 100 µM
• COc1ccc(-n2cnn3c(=O)c4cn[nH]c4nc23)cc1 = > 10 µM
• COc1ccc(-c2ccc(-c3ccc(C(=N)N)s3)s2)cc1 = 4.3 µM

---

Test system: HL-60(TB) leukemia
TEST_DESCRIPTION: NCI tumour cell line growth inhibition, 48 h
OBSERVED_PROPERTY: TGI

- Cc1ccc(S(=O)(=O)c2ccc(N)cc2)cc1: > 100 µM
- Cc1nc([N+](=O)[O-])cn1CC(=N)N: > 100 µM
- Cc1nn(C(=O)Cc2ccccc2)c2c1C(c1ccc(Cl)cc1)SC(N)=N2 (stereo not drawn): > 100 µM
